Test system: NCI-H292 lung cancer cells
assayOverview: FDA drug screening, complete media vs cholesterol-free media without statin (TABLE 1)
Assay type: cell-based, human
assayContext: NCI-H292 cells, cholesterol-free media without statin, FDA drug library screen
Give measured Cholesterol-free for each item. Keep answers brief.
One number for each entry.

What value of Cholesterol-free has been reported for the following compound? O=C(N/N=C/c1ccc([N+](=O)[O-])o1)c1ccc(O)cc1 [Nifuroxazide]
0.9553

I'm hoping you can list Cholesterol-free for every compound here, please.
1. CC(=O)[C@H]1CC[C@H]2[C@@H]3C[C@H](C)C4=CC(=O)CC[C@]4(C)[C@H]3[C@@H](O)C[C@]12C [Medrysone]
2. C=CCCCCCCCCC(=O)O [10-Undecenoic acid]
3. COc1nccnc1NS(=O)(=O)c1ccc(N)cc1 [Sulfalene]
4. NCCc1c[nH]cn1 [Histamine]

0.895
0.9796
1.1
0.9318
